B1: Azoarcus group I ribozyme (parent)
chain: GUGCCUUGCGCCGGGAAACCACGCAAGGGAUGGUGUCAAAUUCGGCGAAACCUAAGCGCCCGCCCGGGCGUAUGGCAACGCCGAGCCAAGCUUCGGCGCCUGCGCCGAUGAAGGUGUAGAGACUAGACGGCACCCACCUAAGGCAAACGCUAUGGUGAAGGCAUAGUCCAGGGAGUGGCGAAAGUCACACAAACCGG

- Variants of: B1
- method_summary: reverse-splicing fitness (ratio to wild type); higher = more active; in vitro selection; Mg2+ level not given
reverse-splicing fitness values for the variants below.
measured_quantity: reverse-splicing fitness

variant_name="C82A A120C A145C C150A U176C" observed=0.0155
variant_name="C82A A111U A120U C150U C169U U176C" observed=0.00448
variant_name="A111C C150U C169G" observed=0.0354
variant_name="A111C A120G A145C C169G U176A" observed=0.0348
variant_name="A111G A120C A145C C150G C169G U176C" observed=0.00487
variant_name="A111C C150G U176C" observed=0.0763
variant_name="A111U A145U C150G C169U U176C" observed=0.0129
variant_name="C82U A111G A120G A145U C169U U176G" observed=0.00342
variant_name="C82U A111U A120C A145G C150U U176C" observed=0.0214
variant_name="C82A A111G A120G A145G C150A U176C" observed=0.0203
variant_name="C82G A111U A120U U176G" observed=0.00464
variant_name="C82U A111U A120C A145U C150A C169G U176G" observed=0.00527
variant_name="C82G A111G A120G C150G C169A U176G" observed=0.00685
variant_name="C82U A111C A145C C150A C169A U176G" observed=0.00794
variant_name="C82G A111U A120G A145G C169U" observed=0.00985
variant_name="A120U A145U C150U C169A U176A" observed=0.00335
variant_name="C82A A120G C150U U176G" observed=0.00727
variant_name="C82G A111U A120U A145G C150A C169A U176C" observed=0.00438
variant_name="C82G A120G A145C C150G C169G U176G" observed=0.00412
variant_name="C82U A111C A120G C169G U176G" observed=0.00413
variant_name="A111C C150A U176A" observed=0.12
variant_name="C82G C150G" observed=0.0318
variant_name="A111C A145G C150A C169G U176A" observed=0.0153
variant_name="C82A A111U C150A C169G U176C" observed=0.0266
variant_name="A120G A145G C150A C169G" observed=0.141
variant_name="C82A A111U A120U A145C C150U C169A U176A" observed=0.00281
variant_name="C82G A111U A120G A145C C150A C169A U176G" observed=0.00583
variant_name="C82G A120C A145U C150G C169U U176C" observed=0.012
variant_name="A111U A120U A145U C150A C169G" observed=0.0047
variant_name="C82G A120G A145G U176C" observed=0.0211
variant_name="C82G A111C A120U A145G C150A U176C" observed=0.0086
variant_name="C82G A120U A145U C150G C169G U176C" observed=0.0022
variant_name="C82U A111G A120G A145C" observed=0.0135
